System: MV4-11 cells
Assay: MV4-11 Cell Cytotoxicity Assay
Format: cell-based, human
Conditions: human, MV4-11 cells, CCK-8
Known IC50 at 72 h of a selection of molecules

// solved cases for IC50 at 72 h follow
Cc1sc2c(c1C)C(c1ccc(Cl)cc1)=N[C@@H](CC(=O)N1CCC(N3CCN(Cc4ccc(-n5c(O)nnc5-c5cc(C(C)C)c(O)cc5O)cc4)CC3)CC1)c1nnc(C)n1-2
< 100 nM
Cc1sc2c(c1C)C(c1ccc(Cl)cc1)=N[C@@H](CC(=O)NCCOCCN1CCC(Cc3ccc(-n4c(O)nnc4-c4cc(C(C)C)c(O)cc4O)cc3)CC1)c1nnc(C)n1-2
100 to 1000 nM
Cc1sc2c(c1C)C(c1ccc(Cl)cc1)=N[C@@H](CC(=O)N(C)[C@H](C)c1ccc(CN3CCC(Cc4ccc(-n5c(O)nnc5-c5cc(C(C)C)c(O)cc5O)cc4)CC3)cc1)c1nnc(C)n1-2
< 100 nM
Cc1sc2c(c1C)C(c1ccc(Cl)cc1)=N[C@@H](CC(=O)N(C)[C@H](C)c1ccc(CN3CCN(Cc4ccc(-n5c(O)nnc5-c5cc(C(C)C)c(O)cc5O)cc4)CC3)cc1)c1nnc(C)n1-2
100 to 1000 nM
Cc1sc2c(c1C)C(c1ccc(Cl)cc1)=N[C@@H](CC(=O)N1CCC(CCN[C@@H](C)C(=O)N[C@H](C(=O)N3CCC[C@H]3C(=O)Nc3snnc3-c3ccccc3)C3CCCCC3)CC1)c1nnc(C)n1-2
100 to 1000 nM
Cc1sc2c(c1C)C(c1ccc(Cl)cc1)=N[C@@H](CC(=O)N1CCC(CN3CCN(Cc4ccc(-n5c(C(N)=O)nnc5-c5cc(C(C)C)c(O)cc5O)cc4)CC3)CC1)c1nnc(C)n1-2
< 100 nM
Cc1sc2c(c1C)C(c1ccc(Cl)cc1)=N[C@@H](CC(=O)NCCOCCN[C@@H](C)C(=O)NC(C(=O)N1CCC[C@H]1C(=O)Nc1snnc1-c1ccccc1)C1CCCCC1)c1nnc(C)n1-2 (stereo in doubt)
100 to 1000 nM
Cc1sc2c(c1C)C(c1ccc(Cl)cc1)=N[C@@H](CCNCCOc1ccc(-n3c(O)nnc3-c3cc(C(C)C)c(O)cc3O)cc1)c1nnc(C)n1-2
100 to 1000 nM

Query: Supply reported IC50 at 72 h belonging to this molecule: `CCN(Cc1ccc(OCCCNC(=O)C[C@@H]2N=C(c3ccc(Cl)cc3)c3c(sc(C)c3C)-n3c(C)nnc32)cc1)Cc1ccc(-n2c(O)nnc2-c2cc(C(C)C)c(O)cc2O)cc1`
Reply: < 100 nM

###

Experiment: Pharmacokinetics and Tissue Distribution in the MV4-11 xenograft model
Format: in vivo, mice
Conditions: female, CB-17 SCID, mouse; plasma; 5 mg/kg single intravenous dose
metric: Cmax (ng/mL)
Expressed in ng/mL, but write only the number.

Query: For Cc1sc2c(c1C)C(c1ccc(Cl)cc1)=N[C@@H](CC(=O)N1CCC(CN3CCN(Cc4ccc(-n5c(O)nnc5-c5cc(C(C)C)c(O)cc5O)cc4)CC3)CC1)c1nnc(C)n1-2.Cl [Compound 74] , write its Cmax.
Reply: 498

###

System: MV4-11 cells
Experiment: MV4-11 Cell Cytotoxicity Assay
Format: cell-based, human
Conditions: human, MV4-11 cells, CCK-8
metric: IC50 at 72 h

Cc1sc2c(c1C)C(c1ccc(Cl)cc1)=N[C@@H](CC(=O)N1CCC(CCN3CCC(Cc4ccc(-n5c(O)nnc5-c5cc(C(C)C)c(O)cc5O)cc4)CC3)CC1)c1nnc(C)n1-2
< 100 nM
Cc1sc2c(c1C)C(c1ccc(Cl)cc1)=N[C@@H](CCNCC1CCN(C(=O)C3CCN(Cc4ccc(-n5c(O)nnc5-c5cc(C(C)C)c(O)cc5O)cc4)CC3)C1)c1nnc(C)n1-2 (stereo partly shown)
100 to 1000 nM

Query: Let me know recorded IC50 at 72 h for Cc1sc2c(c1C)C(c1ccc(Cl)cc1)=N[C@@H](CC(=O)NCC1CCN(C(=O)C3CCN(Cc4ccc(-n5c(O)nnc5-c5cc(C(C)C)c(O)cc5O)cc4)CC3)C1)c1nnc(C)n1-2 (stereo partly shown) , thanks.
Reply: < 100 nM

Query: Check the records and state IC50 at 72 h for `Cc1sc2c(c1C)C(c1ccc(Cl)cc1)=N[C@@H](CC(=O)N1CCC(CN3CCN(Cc4ccc(-n5c(O)nnc5-c5cc(C(C)C)c(O)cc5O)cc4F)CC3)CC1)c1nnc(C)n1-2`
Reply: < 100 nM

###

System: MV4-11 cells
Test: MV4-11 Cell Cytotoxicity Assay
Type: cell-based, human
Settings: human, MV4-11 cells, CCK-8
Entries and their measured IC50 at 72 h follow.

Examples with their reported IC50 at 72 h follow.
Cc1cc(-c2nnc(C(=O)NCC(F)(F)F)n2-c2ccc(CN3CCN(CC4CCN(C(=O)C[C@@H]5N=C(c6ccc(Cl)cc6)c6c(sc(C)c6C)-n6c(C)nnc65)CC4)CC3)cc2)c(O)cc1O [Compound 15, trifluoroacetic acid]
< 100 nM
Cc1sc2c(c1C)C(c1ccc(Cl)cc1)=N[C@@H](CCN(C)CCOc1ccc(-n3c(O)nnc3-c3cc(C(C)C)c(O)cc3O)cc1)c1nnc(C)n1-2 [Compound 65]
100 to 1000 nM
Cc1sc2c(c1C)C(c1ccc(Cl)cc1)=N[C@@H](CCNCCOCCOc1ccc(-n3c(O)nnc3-c3cc(C(C)C)c(O)cc3O)cc1)c1nnc(C)n1-2 [Compound 63, trifluoroacetic acid]
100 to 1000 nM
Cc1sc2c(c1C)C(c1ccc(Cl)cc1)=N[C@@H](CC(=O)N1CCC(CN[C@@H](C)C(=O)N[C@H](C(=O)N3CCC[C@H]3C(=O)Nc3snnc3-c3ccccc3)C3CCCCC3)CC1)c1nnc(C)n1-2 [Compound 129]
> 1000 nM
Cc1sc2c(c1C)C(c1ccc(Cl)cc1)=N[C@@H](CC(=O)N1CCC(CN3CCN(Cc4ccc(-n5c(O)nnc5-c5ccc(O)cc5O)cc4)CC3)CC1)c1nnc(C)n1-2 [Compound 4, trifluoroacetic acid]
100 to 1000 nM
CCc1cc(-c2nnc(O)n2-c2ccc(CN3CCC(C(=O)N4CCC(CNC(=O)C[C@@H]5N=C(c6ccc(Cl)cc6)c6c(sc(C)c6C)-n6c(C)nnc65)C4)CC3)cc2)c(O)cc1O (stereo partly drawn) [Compound 77, trifluoroacetic acid]
100 to 1000 nM
Cc1cc(C(=O)N2Cc3ccc(CN4CCN(C(=O)C[C@@H]5N=C(c6ccc(Cl)cc6)c6c(sc(C)c6C)-n6c(C)nnc65)CC4)cc3C2)c(O)cc1O [Compound 144]
100 to 1000 nM
Cc1sc2c(c1C)C(c1ccc(Cl)cc1)=N[C@@H](CCN(C)CCOCCOc1ccc(-n3c(O)nnc3-c3cc(C(C)C)c(O)cc3O)cc1)c1nnc(C)n1-2 [Compound 71, trifluoroacetic acid]
100 to 1000 nM

Query: Let me know recorded IC50 at 72 h for Cc1sc2c(c1C)C(c1ccc(Cl)cc1)=NC(CC(=O)N[C@H](C)c1ccc(CN3CCN(Cc4ccc(-n5c(O)nnc5-c5cc(C(C)C)c(O)cc5O)cc4)CC3)cc1)c1nnc(C)n1-2 (stereo in doubt) [Compound 70, trifluoroacetic acid] , thanks.
Reply: < 100 nM

Query: Look up IC50 at 72 h of Cc1sc2c(c1C)C(c1ccc(Cl)cc1)=N[C@@H](CC(=O)NCC(=O)NCC1CCN(C(=O)C3CCN(Cc4ccc(-n5c(O)nnc5-c5cc(C(C)C)c(O)cc5O)cc4)CC3)CC1)c1nnc(C)n1-2 [Compound 46, trifluoroacetic acid] and report it.
Reply: < 100 nM

Query: Return IC50 at 72 h (reported value) for this compound: CCc1cc(-c2nnc(C(=O)NCC(F)(F)F)n2-c2ccc(CN3CCN(CC4CCN(C(=O)C[C@@H]5N=C(c6ccc(Cl)cc6)c6c(sc(C)c6C)-n6c(C)nnc65)CC4)CC3)cc2)c(O)cc1O [Compound 14, trifluoroacetic acid]
Reply: < 100 nM

Query: In one line, give reported IC50 at 72 h of the entry CCc1cc(-c2nnc(O)n2-c2ccc(CN3CCC(C(=O)N4CCC(CNCC[C@@H]5N=C(c6ccc(Cl)cc6)c6c(sc(C)c6C)-n6c(C)nnc65)C4)CC3)cc2)c(O)cc1O (stereo partly drawn) [Compound 67, trifluoroacetic acid] .
Reply: 100 to 1000 nM

Query: Answer with the recorded IC50 at 72 h of Cc1sc2c(c1C)C(c1ccc(Cl)cc1)=N[C@@H](CC(=O)N1CCC(Cc3ccc(CN(C)Cc4ccc(-n5c(O)nnc5-c5cc(C(C)C)c(O)cc5O)cc4)cc3)CC1)c1nnc(C)n1-2 [Compound 83, trifluoroacetic acid] only.
Reply: < 100 nM

Query: State its IC50 at 72 h for this compound: Cc1sc2c(c1C)C(c1ccc(Cl)cc1)=N[C@@H](CC(=O)N1CCC(CN3CCN(Cc4ccc(-n5c(C(=O)NCC(F)(F)F)nnc5-c5cc(C(C)C)c(O)cc5O)cc4)CC3)CC1)c1nnc(C)n1-2 [Compound 13]
Reply: < 100 nM

Query: Output measured IC50 at 72 h for this item: COc1cccc(-c2cc(C(=O)Nc3ccc(-c4ccc(OC5CCN(C)CC5)cc4OCCN(C)CC[C@@H]4N=C(c5ccc(Cl)cc5)c5c(sc(C)c5C)-n5c(C)nnc54)cc3)ccc2OC)c1 [Compound 135]
Reply: 100 to 1000 nM

Query: For the compound Cc1sc2c(c1C)C(c1ccc(Cl)cc1)=N[C@@H](CC(=O)NCC(=O)NCCOc1ccc(-n3c(O)nnc3-c3cc(C(C)C)c(O)cc3O)cc1)c1nnc(C)n1-2 [Compound 54] , report IC50 at 72 h.
Reply: 100 to 1000 nM

Query: Note IC50 at 72 h for the compound shown: Cc1sc2c(c1C)C(c1ccc(Cl)cc1)=N[C@@H](CC(=O)N1CCN(Cc3ccc4c(c3)CN(C(=O)c3cc(C(C)C)c(O)cc3O)C4)CC1)c1nnc(C)n1-2 [Compound 141]
Reply: 100 to 1000 nM

Query: Please give measured IC50 at 72 h of the following entry: Cc1sc2c(c1C)C(c1ccc(Cl)cc1)=N[C@@H](CC(=O)NCC(=O)NCC1CN(C(=O)C3CCN(Cc4ccc(-n5c(O)nnc5-c5cc(C(C)C)c(O)cc5O)cc4)CC3)C1)c1nnc(C)n1-2 [Compound 60, trifluoroacetic acid]
Reply: < 100 nM
